Biological target: T1, hIL27Ra-his (Origene, Catalog #TP307012) (human, UniProt Q6UWB1 33-516, limits assumed)
T1 construct: Bought his-tagged cytokine receptor used as SPR analyte; also called human IL27 receptor subunit alpha; not shown: his tag
T1 sequence: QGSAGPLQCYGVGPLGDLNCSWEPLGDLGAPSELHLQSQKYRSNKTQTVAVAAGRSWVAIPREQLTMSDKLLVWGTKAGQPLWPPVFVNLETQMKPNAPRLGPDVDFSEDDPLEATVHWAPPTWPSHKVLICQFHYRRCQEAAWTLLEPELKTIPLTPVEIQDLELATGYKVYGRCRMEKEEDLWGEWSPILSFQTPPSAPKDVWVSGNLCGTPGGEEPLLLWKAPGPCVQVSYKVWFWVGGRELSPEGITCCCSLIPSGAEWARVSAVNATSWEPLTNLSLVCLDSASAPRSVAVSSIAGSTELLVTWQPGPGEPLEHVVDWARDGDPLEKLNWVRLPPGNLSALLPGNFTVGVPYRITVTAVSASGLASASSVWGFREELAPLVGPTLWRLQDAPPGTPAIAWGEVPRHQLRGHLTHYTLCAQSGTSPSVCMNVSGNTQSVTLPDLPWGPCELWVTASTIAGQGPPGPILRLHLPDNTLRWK
Assay: SPR Biacore T200, hIL27Ra arm
# note: boundary value 90000 M⁻¹ s⁻¹ maps to -1; kon below it maps to 1

Record excerpt, results attached:
# Binder, Assigned label
data = [
    ("hIL27Ra_VHH1 (VHH) VHH: QVQLQESGGGLVQPGGSLRLSCAASGFTFSSYPMSWVRQAPGKGLEWISTISAGGDTTLYADSVKGRFTSSRDNAKNTLYLQLNSLKTEDAAIYYCAKRIDCNSGYCYRRNYWGQGTQVTVSS", 1),
    ("hIL27Ra_VHH21 (VHH) VHH: QVQLQESGGGLVQPGGSLRLSCAASGFTFSLSSMSWVRQAPGKGLEWVSAISSGGASTYYTDSVKGRFTISRDNAKNMLYLQLNSLKTEDTAMYYCAKGGSGYGDASRMTSPGSQGTQVTVSS", -1),
]

Enquiry: For this binder, is kon lower than 90000 M⁻¹ s⁻¹? hIL27Ra_VHH19 (VHH) VHH: QVQLQESGGGSVQAGGSLRLSCRASGSTYSNYCLGWFRQITGKEREGVAVINWVGGMLYFADSVKGRFTVSQDQAKNTVYLQMNSLKPEDTAMYYCAAESVSSFSCGGWLTRPDRVPYWGQGTQVTVSS
Return: -1

Enquiry: For this binder, is kon lower than 90000 M⁻¹ s⁻¹? hIL27Ra_VHH15 (VHH) VHH: QVQLQESGGGSVQAGGSLRLSCVASGYVSCDYFLPSWYRQAPGKEREFVSIIDGTGSTSYAASVKGRFTASQDKGKNIAYLQMNTLKPEDTAMYYCKASCVRGRAISEYWGQGTQVTVSS
Return: 1
